# credit: patent US8563553B2

target: b-Raf(V600E) (Homo sapiens (Human), UniProt P15056, V600E); assay: Raf/Mek Amplified Luminescence Proximity Homogeneous Assay (Alpha Screen); format: biochemical; conditions: b-Raf(V600E) approximately 4 pM; biotinylated Mek, kinase dead approximately 10 nM; ATP 10 μM; pre-incubation 60 minutes; reaction 3 hours at room temperature; read-out: mut-B-RAF IC50
Sequence (P15056 whole entry V600E): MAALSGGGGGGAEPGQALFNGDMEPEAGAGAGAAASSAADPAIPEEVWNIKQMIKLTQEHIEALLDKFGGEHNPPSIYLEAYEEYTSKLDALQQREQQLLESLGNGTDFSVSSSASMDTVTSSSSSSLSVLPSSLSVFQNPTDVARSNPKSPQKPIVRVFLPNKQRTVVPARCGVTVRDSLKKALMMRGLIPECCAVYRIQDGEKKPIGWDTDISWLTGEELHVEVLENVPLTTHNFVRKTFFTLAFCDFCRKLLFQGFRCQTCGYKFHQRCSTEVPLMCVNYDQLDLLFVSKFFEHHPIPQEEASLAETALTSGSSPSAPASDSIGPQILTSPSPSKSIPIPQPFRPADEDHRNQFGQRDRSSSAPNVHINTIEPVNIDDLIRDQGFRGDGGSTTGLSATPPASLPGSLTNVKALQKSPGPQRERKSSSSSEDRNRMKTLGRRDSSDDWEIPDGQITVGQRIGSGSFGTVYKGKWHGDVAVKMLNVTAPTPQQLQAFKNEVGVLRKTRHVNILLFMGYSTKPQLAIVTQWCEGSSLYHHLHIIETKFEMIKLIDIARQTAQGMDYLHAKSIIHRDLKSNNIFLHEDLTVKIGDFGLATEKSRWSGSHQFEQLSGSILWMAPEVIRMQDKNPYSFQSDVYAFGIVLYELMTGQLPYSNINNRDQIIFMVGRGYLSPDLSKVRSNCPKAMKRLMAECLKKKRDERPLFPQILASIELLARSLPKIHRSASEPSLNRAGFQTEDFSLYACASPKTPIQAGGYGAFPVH
endpoint: IC50 (pM)
Numeric only. Scale: pM

Some compounds with recorded IC50:
{"columns": ["compound-string", "experimental-system", "numeric-result"],
 "data": [
  ["CCCNc1nccc(-c2[nH]c(C3CC3)nc2-c2cc(F)cc(NS(=O)(=O)CCC)c2Cl)n1", "b-Raf(V600E) (Homo sapiens (Human), UniProt P15056, V600E)", 390],
  ["C[C@H](O)CNc1nccc(-c2[nH]c(C3CC3)nc2-c2cccc(NS(C)(=O)=O)c2F)n1", "b-Raf(V600E) (Homo sapiens (Human), UniProt P15056, V600E)", 28000],
  ["CCCS(=O)(=O)Nc1cccc(-c2nc(C(C)(C)C)[nH]c2-c2ccnc(NC[C@H](C)NC(=O)OC)n2)c1F", "b-Raf(V600E) (Homo sapiens (Human), UniProt P15056, V600E)", 380]
]}

Here is the next item to consider.
What measured IC50 is associated with "COC(=O)N[C@@H](C)CNc1nccc(-c2nc(C3(C)CC3)[nH]c2-c2cccc(NS(C)(=O)=O)c2Cl)n1" on b-Raf(V600E) (Homo sapiens (Human), UniProt P15056, V600E)?
1000

---

molecular target: b-Raf(V600E) (Homo sapiens (Human), UniProt P15056, V600E); assay: Raf/Mek Amplified Luminescence Proximity Homogeneous Assay (Alpha Screen); details: b-Raf(V600E) approximately 4 pM; biotinylated Mek, kinase dead approximately 10 nM; ATP 10 μM; pre-incubation 60 minutes; reaction 3 hours at room temperature; read-out: mut-B-RAF IC50
endpoint: pIC50
pIC50 here: minus log base 10 of the concentration, concentration in moles per litre.

{"columns": ["compound-string", "numeric-result"],
 "data": [
  ["COC(=O)N[C@@H](C)CNc1nccc(-c2[nH]c(C(C)(C)C)nc2-c2cccc(NS(C)(=O)=O)c2F)n1", 9.21],
  ["COC(=O)N[C@@H](C)CNc1nccc(-c2[nH]c(C3CC3)nc2-c2cccc(NS(C)(=O)=O)c2F)n1", 9.26],
  ["CS(=O)(=O)Nc1cc(F)cc(-c2nc(C3CC3)[nH]c2-c2ccncn2)c1Cl", 7.06],
  ["COC(=O)N[C@@H](C)CNc1nccc(-c2[nH]c(-c3ccc(F)cc3F)nc2-c2cc(F)cc(NS(C)(=O)=O)c2Cl)n1", 5.69],
  ["COC(=O)N[C@@H](C)CNc1nccc(-c2nc(C3CC3)[nH]c2-c2cc(Cl)cc(NS(=O)(=O)c3cccc(F)c3)c2F)n1", 9.48],
  ["CS(=O)(=O)Nc1cccc(-c2nc(C3CC3)[nH]c2-c2ccnc(NCCC#N)n2)c1F", 8.40]
]}

Here is the next item to consider.
Requested read-out: pIC50. Entry: "COC(=O)N[C@@H](C)CNc1nccc(-c2[nH]c(C3CC3)nc2-c2cccc(NS(C)(=O)=O)c2Cl)n1"
9.33

---

target: b-Raf(V600E) (Homo sapiens (Human), UniProt P15056, V600E); test: Raf/Mek Amplified Luminescence Proximity Homogeneous Assay (Alpha Screen); conditions: b-Raf(V600E) approximately 4 pM; biotinylated Mek, kinase dead approximately 10 nM; ATP 10 μM; pre-incubation 60 minutes; reaction 3 hours at room temperature; read-out: mut-B-RAF IC50
# IC50 values compiled below
Numeric only. Scale: nM

Some compounds with recorded IC50:
{"columns": ["compound-string", "unit-name", "numeric-result"],
 "data": [
  ["COC(=O)N[C@@H](C)CNc1nccc(-c2[nH]c(C(C)(C)C)nc2-c2cc(Cl)cc(NS(=O)(=O)CC(C)C)c2)n1", "nM", 0.3],
  ["CCCS(=O)(=O)Nc1cc(F)cc(-c2nc(C3CC3)[nH]c2-c2ccnc(NC(C)C)n2)c1Cl", "nM", 5]
]}

What measured IC50 is associated with "COC(=O)N[C@@H](C)CNc1nccc(-c2[nH]c(C3CC3)nc2-c2cccc(NS(C)(=O)=O)c2)n1" on b-Raf(V600E) (Homo sapiens (Human), UniProt P15056, V600E)?
8

What measured IC50 is associated with "CC1(c2nc(-c3cc(F)cc(NS(C)(=O)=O)c3Cl)c(-c3ccnc(NCCC#N)n3)[nH]2)CC1" on b-Raf(V600E) (Homo sapiens (Human), UniProt P15056, V600E)?
0.23

What measured IC50 is associated with "CCCS(=O)(=O)Nc1cc(F)cc(-c2nc(C3CC3)[nH]c2-c2ccnc(NCC)n2)c1Cl" on b-Raf(V600E) (Homo sapiens (Human), UniProt P15056, V600E)?
1

What measured IC50 is associated with "COC(=O)N[C@@H](C)CNc1nccc(-c2[nH]c(C3CC3)nc2-c2cc(C)cc(NS(C)(=O)=O)c2F)n1" on b-Raf(V600E) (Homo sapiens (Human), UniProt P15056, V600E)?
0.2

What measured IC50 is associated with "CS(=O)(=O)Nc1cc(F)cc(-c2nc(C3CC3)[nH]c2-c2ccnc(N)n2)c1Cl" on b-Raf(V600E) (Homo sapiens (Human), UniProt P15056, V600E)?
12

---

target: b-Raf(V600E) (Homo sapiens (Human), UniProt P15056, V600E); test: Raf/Mek Amplified Luminescence Proximity Homogeneous Assay (Alpha Screen); conditions: b-Raf(V600E) approximately 4 pM; biotinylated Mek, kinase dead approximately 10 nM; ATP 10 μM; pre-incubation 60 minutes; reaction 3 hours at room temperature; read-out: mut-B-RAF IC50
# log10 IC50 values compiled below
Values reflect log10 of reported IC50 (pM).

{"columns": ["compound-string", "numeric-result"],
 "data": [
  ["Cc1cc(NS(C)(=O)=O)c(F)c(-c2nc(C3(C)CC3)[nH]c2-c2ccnc(NCCC#N)n2)c1", 2.57],
  ["CCCS(=O)(=O)Nc1cc(Cl)cc(-c2nc(C(C)(C)C)[nH]c2-c2ccnc(NC[C@H](C)NC(=O)OC)n2)c1", 2.00],
  ["COC(=O)N[C@@H](C)CNc1nccc(-c2[nH]c(C3CC3)nc2-c2cc(Cl)cc(NS(=O)(=O)C(C)C)c2)n1", 2.80],
  ["COC(=O)N[C@@H](C)CNc1nccc(-c2[nH]c(C3CC3)nc2-c2cc(Cl)cc(NS(=O)(=O)c3ccc(C(F)(F)F)cc3)c2F)n1", 3.85]
]}

Requested read-out: log10 IC50. Entry: "CC(C)(C)c1nc(-c2cccc(NS(C)(=O)=O)c2Cl)c(-c2ccnc(N)n2)[nH]1"
4.74

Requested read-out: log10 IC50. Entry: "CCCNc1nccc(-c2[nH]c(C3CC3)nc2-c2cc(F)cc(NS(C)(=O)=O)c2Cl)n1"
3.70

Requested read-out: log10 IC50. Entry: "COC(=O)N[C@@H](C)CNc1nccc(-c2[nH]c(C3CC3)nc2-c2cc(F)cc(NS(=O)(=O)C3CC3)c2Cl)n1"
2.48

---

# pIC50 values compiled below
target: b-Raf(V600E) (Homo sapiens (Human), UniProt P15056, V600E); test: Raf/Mek Amplified Luminescence Proximity Homogeneous Assay (Alpha Screen); settings: b-Raf(V600E) approximately 4 pM; biotinylated Mek, kinase dead approximately 10 nM; ATP 10 μM; pre-incubation 60 minutes; reaction 3 hours at room temperature; read-out: mut-B-RAF IC50
pIC50 here: minus log base 10 of the concentration, concentration in moles per litre.

Some compounds with recorded pIC50:
{"columns": ["compound", "pIC50"],
 "data": [
  ["CC(C)(C)c1nc(-c2cccc(NS(=O)(=O)c3c(F)cccc3F)c2Cl)c(-c2ccnc(N)n2)[nH]1", 9.66],
  ["COC(=O)N[C@@H](C)CNc1nccc(-c2[nH]c(C3CC3)nc2-c2cc(Cl)cc(NS(C)(=O)=O)c2)n1", 9.32],
  ["CCS(=O)(=O)Nc1cc(Cl)cc(-c2nc(C(C)(C)C)[nH]c2-c2ccnc(NC[C@H](C)NC(=O)OC)n2)c1F", 9.34]
]}

What measured pIC50 is associated with "COC(=O)N[C@@H](C)CNc1nccc(-c2[nH]c(C3CC3)nc2-c2cc(Cl)cc(NS(C)(=O)=O)c2F)n1" on b-Raf(V600E) (Homo sapiens (Human), UniProt P15056, V600E)?
9.70

What measured pIC50 is associated with "COC(=O)N[C@@H](C)CNc1nccc(-c2[nH]c(C3CC3)nc2-c2cc(F)cc(NS(C)(=O)=O)c2F)n1" on b-Raf(V600E) (Homo sapiens (Human), UniProt P15056, V600E)?
9.70

What measured pIC50 is associated with "CCCS(=O)(=O)Nc1cc(Cl)cc(-c2[nH]c(C3CC3)nc2-c2ccnc(NC[C@H](C)NC(=O)OC)n2)c1F" on b-Raf(V600E) (Homo sapiens (Human), UniProt P15056, V600E)?
9.05

What measured pIC50 is associated with "CCCS(=O)(=O)Nc1cccc(-c2nc(C3CC3)[nH]c2-c2ccnc(NC[C@H](C)NC(=O)OC)n2)c1F" on b-Raf(V600E) (Homo sapiens (Human), UniProt P15056, V600E)?
9.80

What measured pIC50 is associated with "CCCS(=O)(=O)Nc1cccc(-c2nc(C3CC3)[nH]c2-c2ccnc(NCCC(N)=O)n2)c1F" on b-Raf(V600E) (Homo sapiens (Human), UniProt P15056, V600E)?
8.70

What measured pIC50 is associated with "CS(=O)(=O)Nc1cc(Cl)cc(-c2nc(C3CC3)[nH]c2-c2ccnc(N)n2)c1F" on b-Raf(V600E) (Homo sapiens (Human), UniProt P15056, V600E)?
8.40
